assayName: in vitro
measurementConditions: human, hela cells, % viability
Binary call on viability at 28.5 h, 10 µM with cut-off 90%: strictly below means T, and equality or higher means F.

## Input Check if viability at 28.5 h, 10 µM falls below 90% for `O=C(O)/C=C/C(=O)NN1C(=O)c2ccccc2C1=O` .
## Output T

## Input In plain terms, does `Cc1nn(C)c(Cl)c1CN(CCC#N)Cc1ccco1` come in under 90% for viability at 28.5 h, 10 µM?
## Output F

## Input Is the reported viability at 28.5 h, 10 µM for `CS(=O)(=O)N1CC[C@H](c2nc3ccccc3s2)C1` strictly below 90%?
## Output T

## Input A record lists `Nc1cc(S(=O)(=O)O)c2cccnc2c1O` . Is its viability at 28.5 h, 10 µM below 90%?
## Output T

## Input Please state whether viability at 28.5 h, 10 µM is below 90% for `NC(=O)c1c(N)c(C(N)=S)n2c1CCC2`
## Output F

## Input Could you please tell me whether viability at 28.5 h, 10 µM recorded for `CC(C)[C@@H](CO)Nc1cncc(-c2ccc(O)cc2)n1` is less than 90%?
## Output F

## Input Strictly below 90% in viability at 28.5 h, 10 µM? `COc1cccc(-c2nnc(SCC(=O)Nc3cccc([N+](=O)[O-])c3)n2C)c1`
## Output F

## Input # check: viability at 28.5 h, 10 µM < 90% for `O=C(O)CCSc1nc2ccccc2n1-c1ccccc1`
## Output F

## Input Determine if `COc1cccc([C@H]2CN(C(=O)c3ccccc3)[C@@H]3CCN(Cc4ccccc4F)C[C@H]23)c1` shows viability at 28.5 h, 10 µM strictly lower than 90%.
## Output F

## Input Please indicate whether the reported viability at 28.5 h, 10 µM of `C=CCNC(=O)N[C@H]1CCN2C(=O)c3ccc(Cl)cc3NC(=O)[C@@H]2C1` is strictly below 90%.
## Output F

## Input Just wondering, is viability at 28.5 h, 10 µM of `CN1[C@@H]2CC[C@H]1C[C@@H](N1Cc3cc4ccccc4n3C1=O)C2` below 90%?
## Output F

## Input I'd appreciate it if you could check whether Cc1ccc(S(=O)(=O)NC(C(=O)O)c2ccccc2)cc1 (stereo not shown) has viability at 28.5 h, 10 µM smaller than 90%.
## Output F

## Input Would you kindly verify if viability at 28.5 h, 10 µM of COC(=O)c1cccc(CCC2CC(=O)C=C(O)C2)c1 (stereo not shown) is strictly less than 90%?
## Output F

## Input For this molecule, is viability at 28.5 h, 10 µM lower than 90%? `CCCCCOc1ccc(Nc2ccc(-c3cc4ccccc4o3)cn2)cc1`
## Output F

## Input Lab log: compare recorded viability at 28.5 h, 10 µM with 90%; is it strictly lower for `NS(=O)(=O)c1cnccc1NCCc1ccccc1` ?
## Output F

Source of measurements: paper PMC12040169
